Would you mind telling me the reported IC50 of each entry?
target: Human androgen receptors (Homo sapiens (Human), UniProt P10275, T878A); test: Androgen receptor (AR) radioligand binding assay; conditions: read-out: AR IC50
Sequence (P10275 whole entry T878A): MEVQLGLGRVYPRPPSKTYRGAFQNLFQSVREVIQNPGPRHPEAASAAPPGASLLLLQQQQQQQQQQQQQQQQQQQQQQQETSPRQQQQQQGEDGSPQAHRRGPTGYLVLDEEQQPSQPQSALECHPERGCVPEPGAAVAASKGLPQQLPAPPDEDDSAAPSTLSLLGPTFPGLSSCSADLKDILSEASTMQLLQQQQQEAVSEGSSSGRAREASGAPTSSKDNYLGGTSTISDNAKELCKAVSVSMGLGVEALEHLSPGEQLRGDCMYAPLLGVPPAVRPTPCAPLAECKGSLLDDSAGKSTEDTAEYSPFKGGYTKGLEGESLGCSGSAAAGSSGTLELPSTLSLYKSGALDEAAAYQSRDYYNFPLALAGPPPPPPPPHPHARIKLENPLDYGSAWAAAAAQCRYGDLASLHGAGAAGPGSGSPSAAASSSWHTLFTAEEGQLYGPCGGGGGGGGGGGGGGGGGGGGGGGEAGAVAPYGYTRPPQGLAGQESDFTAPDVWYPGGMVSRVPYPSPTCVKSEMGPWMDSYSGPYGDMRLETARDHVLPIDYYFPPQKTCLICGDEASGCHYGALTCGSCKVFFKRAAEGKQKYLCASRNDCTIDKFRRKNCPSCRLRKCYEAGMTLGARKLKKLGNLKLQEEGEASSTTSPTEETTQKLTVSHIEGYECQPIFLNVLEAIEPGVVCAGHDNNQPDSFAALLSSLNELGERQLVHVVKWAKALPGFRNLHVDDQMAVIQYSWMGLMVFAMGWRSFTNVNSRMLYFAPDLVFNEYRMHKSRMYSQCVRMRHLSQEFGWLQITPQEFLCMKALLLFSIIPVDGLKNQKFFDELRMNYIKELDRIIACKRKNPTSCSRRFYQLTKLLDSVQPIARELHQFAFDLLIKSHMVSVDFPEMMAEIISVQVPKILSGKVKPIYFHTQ

## Input Recall and state the measured IC50 for CCCc1nc(C)c2c(=O)[nH]c(-c3cc(N4C(=S)N(c5cnc(C#N)c(C(F)(F)F)c5)C(=O)C45CCC5)ccc3OCC)nn12 [Compound 24] .
## Output 0.05 to 0.2 µM

## Input Recall and state the measured IC50 for CCCc1nc(C)c2c(=O)[nH]c(-c3cc(N4C(=S)N(c5cnc(C#N)c(C(F)(F)F)c5)C(=O)C4(C)C)ccc3OCC)nn12 [Compound 20] .
## Output 0.05 to 0.2 µM
